# assay_overview: in vitro
# Type: cell-based
# test_conditions: human
quantity: viability at 24 h, 100 µM
Please provide the amount together with its unit, number first.

Prompt: Name the reported viability at 24 h, 100 µM value associated with the compound Nc1c2c(nc3nc4ccccc4nc13)CCCC2 [QT78]
Completion: 90.5%

###

# assay_overview: in vitro
# Type: cell-based
# test_conditions: human
quantity: viability at 24 h, 300 µM (%)
Reply numerically in %, unit not repeated.

Prompt: Name the reported viability at 24 h, 300 µM value associated with the molecule Nc1c2c(nc3nc4ccccc4nc13)CCCC2
Completion: 78.1

###

# assay_overview: in vitro
# Assay type: cell-based
# test_conditions: human
quantity: viability at 24 h, 1 µM (%)
Reply numerically in %, unit not repeated.

Prompt: Name the reported viability at 24 h, 1 µM value associated with the compound Nc1c2c(nc3nc4ccccc4nc13)CCCC2
Completion: 96.7

###

# test_target: BuChE from human serum (Homo sapiens, UniProt P06276)
# Construct: BuChE from human serum (Sigma-Aldrich, Milan, Italy); purchased Sigma-Aldrich, Milan, Italy; host or cells: human serum
# Sequence (P06276 29-602): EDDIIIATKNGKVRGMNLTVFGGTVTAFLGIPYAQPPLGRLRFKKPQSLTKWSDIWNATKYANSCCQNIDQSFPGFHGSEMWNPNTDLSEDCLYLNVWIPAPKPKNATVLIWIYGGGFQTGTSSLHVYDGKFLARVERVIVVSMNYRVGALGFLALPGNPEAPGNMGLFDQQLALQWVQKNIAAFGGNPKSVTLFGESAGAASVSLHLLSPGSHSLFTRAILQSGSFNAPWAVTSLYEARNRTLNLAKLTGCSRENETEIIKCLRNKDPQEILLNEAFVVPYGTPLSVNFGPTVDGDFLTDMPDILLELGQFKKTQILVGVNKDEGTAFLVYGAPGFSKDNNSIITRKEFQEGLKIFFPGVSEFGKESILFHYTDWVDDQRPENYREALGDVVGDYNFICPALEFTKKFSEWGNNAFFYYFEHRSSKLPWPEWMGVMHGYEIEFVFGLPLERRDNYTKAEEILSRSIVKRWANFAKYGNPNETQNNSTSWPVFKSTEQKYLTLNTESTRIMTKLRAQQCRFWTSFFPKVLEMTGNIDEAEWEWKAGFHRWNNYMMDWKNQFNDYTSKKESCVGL
# assay_overview: Inhibition of human BuChE (Ellman's assay)
# Format: biochemical
# test_conditions: 20 min preincubation at 37 °C, pH 8.0, read-out: IC50 (hBuChE)
quantity: IC50 (µM)
Reply numerically in µM, unit not repeated.

Prompt: Name the reported IC50 value associated with the compound Nc1c2c(nc3nc4ccccc4nc13)CCCC2
Completion: 6.79

###

# assay_overview: in vitro
# Assay type: cell-based
# test_conditions: human
quantity: viability at 24 h, 3 µM (%)
Reply numerically in %, unit not repeated.

Prompt: Name the reported viability at 24 h, 3 µM value associated with the compound Nc1c2c(nc3nc4ccccc4nc13)CCCC2
Completion: 97.6
